Assay: Bioassay: distribution of I-123-labeled compounds in organs of rats after tail vein injection (percent dose/gram, brain/blood ratio)
Type: in vivo, Female Sprague-Dawley rats
Conditions: 5 minutes post-injection
Below, each entry is listed with its recorded Brain/Blood Ratio 5 min..
Respond with the number and no other words.

Consider the worked cases shown below.
## Task Fill blank: measured Brain/Blood Ratio 5 min. of the compound [123I]c1ccccc1CN(CCc1ccccc1)CCc1ccccc1 is ____.
## Result 1.03

## Task Fill blank: measured Brain/Blood Ratio 5 min. of the compound [123I]c1ccccc1CCN1CCCCC1 is ____.
## Result 2.35

## Task Fill blank: measured Brain/Blood Ratio 5 min. of the compound [123I]c1ccccc1CN1CCCCC1 is ____.
## Result 1.56

## Task Fill blank: measured Brain/Blood Ratio 5 min. of the compound C[C@H](N)Cc1ccc([123I])cc1 is ____.
## Result 7.04

## Task Fill blank: measured Brain/Blood Ratio 5 min. of the compound CC(C)Nc1ccc([123I])cc1 is ____.
## Result 2.55

## Task Fill blank: measured Brain/Blood Ratio 5 min. of the compound [123I]c1ccc(NCc2ccccc2)cc1 is ____.
## Result 1.57

Further cases:
## Task Fill blank: measured Brain/Blood Ratio 5 min. of the compound CNCCc1ccccc1[123I] is ____.
## Result 0.49

## Task Fill blank: measured Brain/Blood Ratio 5 min. of the compound [123I]c1ccccc1NCc1ccccc1 is ____.
## Result 2.23

## Task Fill blank: measured Brain/Blood Ratio 5 min. of the compound CC(Cc1ccccc1)NCCc1ccccc1[123I] (racemic) is ____.
## Result 7.13

Sourced from patent US4360511A
